# herbicidal effect rating, CYPIR per entry
# System: Cyperus iria
# protocol.text: Preemergence weed control under flooded paddy conditions, CYPIR (Rice Flatsedge); also: meaning of each grade not given here
# Type: in vivo
# condition.notes: 0.2500 kg/ha; preemergence, flooded paddy; rated three to four weeks after treatment
Simply state the number, no unit and no words.

Solved cases (7 shown):
                                   molecule                measured_endpoint  numeric_value
0  Cc1ccc(OCC(=O)OC(C)(C)C)c(-c2nsc3ccc(-n4c(=O)cc(C(F)(F)F)n(C)c4=O)cc23)c1 [Example 68]  herbicidal effect rating, CYPIR            9.0
1  COC(=O)C(C)Oc1ccc(C(C)C)cc1-c1nsc2ccc(-n3c(=O)cc(C(F)(F)F)n(C)c3=O)cc12 (centres unmarked) [Example 30]  herbicidal effect rating, CYPIR            8.0
2  COc1ccc(C)cc1-c1nsc2ccc(-n3c(=O)cc(C(F)(F)F)n(C)c3=O)cc12 [Example 1]  herbicidal effect rating, CYPIR            9.0
3  Cc1nsc2ccc(-n3c(=O)cc(C(F)(F)F)n(C)c3=O)cc12 [Example 6]  herbicidal effect rating, CYPIR            9.0
4  Cc1ccc(OC(C)C)c(-c2nsc3ccc(-n4c(=O)cc(C(F)(F)F)n(C)c4=O)cc23)c1 [Example 59]  herbicidal effect rating, CYPIR            9.0
5  CCc1ccc(-c2nsc3ccc(-n4c(=O)cc(C(F)(F)F)n(C)c4=O)cc23)cc1 [Example 5]  herbicidal effect rating, CYPIR            9.0
6  COC(=O)COc1ccc(C)cc1-c1nsc2ccc(-n3c(=O)cc(C)n(C)c3=O)cc12 [Example 38]  herbicidal effect rating, CYPIR            0.0

# next molecule below
*Q* What herbicidal effect rating, CYPIR value was documented for this molecule, C=CCOC(=O)COc1ccc(C)cc1-c1nsc2ccc(-n3c(=O)cc(C(F)(F)F)n(C)c3=O)cc12 [Example 69] ?
*A* 7.0

---

# Test system: Cyperus serotinus, Rottb.
# protocol.text: Postemergence weed control under flooded paddy conditions, CYPSE (Flatsedge)
# Format: in vivo
# condition.notes: Rate 0.2500 kg/ha, rated three to four weeks after treatment
measured.endpoint: herbicidal effect rating, CYPSE
Simply state the number, no unit and no words.

In [3]: df
Out[3]:
                                   compound                measured_endpoint  numeric_value
0  CCc1ccc(-c2nsc3ccc(-n4c(=O)cc(C(F)(F)F)n(C)c4=O)cc23)cc1 [Example 5]  herbicidal effect rating, CYPSE            0.0

*Q* What herbicidal effect rating, CYPSE value was documented for this compound, Cc1ccc(OCC(=O)OCC2(c3ccccc3)CC2)c(-c2nsc3ccc(-n4c(=O)cc(C(F)(F)F)n(C)c4=O)cc23)c1 [Example 517] ?
*A* 0.0

*Q* What herbicidal effect rating, CYPSE value was documented for this compound, COc1cc(C)c(I)cc1-c1nsc2ccc(-n3c(=O)cc(C(F)(F)F)n(C)c3=O)cc12 [Example 429] ?
*A* 0.0

*Q* What herbicidal effect rating, CYPSE value was documented for this compound, CC(C)Oc1cccc(-c2nsc3ccc(-n4c(=O)cc(C(F)(F)F)n(C)c4=O)cc23)c1 [Example 328] ?
*A* 6.0

*Q* What herbicidal effect rating, CYPSE value was documented for this compound, COC(=O)C(C)Oc1ccc(C)cc1-c1nsc2ccc(-n3c(=O)cc(C(F)(F)F)n(C)c3=O)cc12 (stereo not shown) [Example 3] ?
*A* 0.0

*Q* What herbicidal effect rating, CYPSE value was documented for this compound, CCC(C#N)(CC)c1nsc2ccc(-n3c(=O)cc(C(F)(F)F)n(C)c3=O)cc12 [Example 445] ?
*A* 4.0

*Q* What herbicidal effect rating, CYPSE value was documented for this compound, CCCCC(=O)c1nsc2ccc(-n3c(=O)cc(C(F)(F)F)n(C)c3=O)cc12 [Example 431] ?
*A* 4.0
